Value source: the METLIN SMRT retention time set (Domingo-Almenara et al. 2019)

Recorded measurements of RP-LC retention time, one per entry
# measurement-protocol: gradient 5% acetonitrile 3 min, to 50% in 2 min, to 85% in 15 min, held 3 min, 100 µL/min
# condition-details: column: Zorbax Extend-C18 2.1 x 50 mm; eluents: water / acetonitrile, 0.1% formic acid

• COc1ccc(C)cc1NC(=O)N1CCCC1c1cc(C)on1 (stereo not drawn) = 863 s
• Cc1ccc2nc(NC(=O)CSc3nn4c(=O)c(C)nnc4s3)sc2c1 = 704 s

Now look at this one.
get_value(item= COc1ccc(C2(C(=O)N3CCC4(CC3)C(OC)C(=O)N4c3cccc(F)c3)CC2)cc1 (stereo not drawn) , readout=RP-LC retention time) returns 901 s
